// data source = the RNAGym collection of RNA variant scans (doi:10.1073/pnas.2313332121)

B1: TPR 5TU (parent)
chain: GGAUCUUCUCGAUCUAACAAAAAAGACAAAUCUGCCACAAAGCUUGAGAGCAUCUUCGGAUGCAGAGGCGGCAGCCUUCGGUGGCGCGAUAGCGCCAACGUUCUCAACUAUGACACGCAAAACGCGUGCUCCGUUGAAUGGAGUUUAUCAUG

- Variants of: B1
- methodNotes: polymerase ribozyme fitness, log enrichment relative to wild type (log ratio); higher = more active; in vitro selection for triplet polymerase activity
Variants at the floor of the assay were thinned out.
The entries below come with measured polymerase ribozyme fitness (log ratio) values attached.
readoutLabel: polymerase ribozyme fitness (log ratio)

1) U101G C118A G126A    -3.59
2) A41U A120G G143A    -2.06
3) U4A C85U    -1.53
4) A21U C79G    -3.91
5) A19U C35U    -0.444
